- System: OVCAR-3 ovarian
- ASSAY NAME: NCI tumour cell line growth inhibition, 48 h

{"MOLECULE": "O=C(Nc1ccc(N2C(=O)CSC2c2ccccc2O)cc1)c1ccc(N2C(=O)CSC2c2ccccc2O)cc1 (stereo not given)", "TGI": "> 100 µM"}
{"MOLECULE": "C1=C(c2ccccc2)SC(N2CCCCC2)S1 (stereo not given)", "TGI": "> 100 µM"}
{"MOLECULE": "O=[N+]([O-])c1ccccc1N=Nc1c(O)[nH]c2cccc(C(F)(F)F)c12", "TGI": "62.2 µM"}
{"MOLECULE": "CC(C)/C(Cl)=N/OC(=O)Nc1ccc(Br)cc1", "TGI": "9.5 µM"}
{"MOLECULE": "CCn1nc(C)c2c1C(=O)NCC(=O)N2", "TGI": "> 100 µM"}
{"MOLECULE": "C=CCSC1=N/C(=C\\c2ccc(Cl)cc2)C(=O)N1CC=C", "TGI": "> 100 µM"}
{"MOLECULE": "CCOC(=O)NC(=O)c1cn(CCN2CCN(C(=O)NCCCCCCNC(=O)N3CCN(CCn4cc(C(=O)NC(=O)OCC)c(=O)[nH]c4=O)CC3)CC2)c(=O)[nH]c1=O", "TGI": "> 100 µM"}
{"MOLECULE": "O=c1[nH]/c(=C/c2ccc(OCc3ccccc3)cn2)c(=O)[nH]/c1=C/c1ccccc1", "TGI": "> 78.6 µM"}
{"MOLECULE": "O=c1ncccn1[C@@H]1O[C@H](CO)[C@H](O)C1O (stereo not given in full)", "TGI": "> 100 µM"}
{"MOLECULE": "O=C1C[C@H]2CCCN2[C@@H](c2ccccc2)C1", "TGI": "> 100 µM"}

These entries and their values trace back to PubChem BioAssay (NCI).
